Molecular target: Interleukin-8 (Homo sapiens) (UniProt P10145)
Sequence (P10145 whole entry, looked up): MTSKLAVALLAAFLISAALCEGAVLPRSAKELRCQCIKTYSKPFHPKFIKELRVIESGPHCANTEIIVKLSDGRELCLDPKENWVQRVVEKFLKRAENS
Test: inhibitors of NFkB activation in CF airway cells, SAR follow-up, KKLEB cells, panel, IL8 HTRF, NFkB-GFP (AID 651592);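 note: immortalized cystic fibrosis airway epithelial KKLEB cells with an NF-kB GFP reporter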
Conditions: PAF/TNFa-induced NFkB-GFP / IL8 HTRF, IL8, TNFa-induced, run 5
QUANTITY NAME: IC50

[[record]]
structure = "O=C(Nc1ccc(N2CCN(C(=O)c3ccccc3)CC2)cc1)c1cc(Br)cc(Br)c1"
quantity_name = "IC50"
reported_measurement = "> 66 µM"

[[record]]
structure = "O=C(Nc1ccc(N2CCN(C(=O)c3ccc(F)cc3)CC2)cc1)c1cncc(Br)c1"
quantity_name = "IC50"
reported_measurement = "10.3 µM"

[[record]]
structure = "CCOc1ccc(NCc2cc3c(C)nn(-c4ccccc4)c3[nH]c2=O)cc1"
quantity_name = "IC50"
reported_measurement = "> 66 µM"

[[record]]
structure = "O=C(Nc1ccc(N2CCN(C(=O)c3ccccc3Cl)CC2)cc1)c1cncc(Br)c1"
quantity_name = "IC50"
reported_measurement = "8.3 µM"

[[record]]
structure = "CCOc1ccc(NCc2cc3c(-c4ccc(OC)c(OC)c4)nn(-c4ccccc4)c3[nH]c2=O)cc1"
quantity_name = "IC50"
reported_measurement = "> 66 µM"

[[record]]
structure = "O=C(Nc1ccc(N2CCN(C(=O)c3ccccc3Cl)CC2)cc1)c1ccccc1"
quantity_name = "IC50"
reported_measurement = "> 66 µM"

[[record]]
structure = "O=C(Nc1ccc(N2CCN(C(=O)c3ccccc3)CC2)cc1)c1cncc(Br)c1"
quantity_name = "IC50"
reported_measurement = "> 66 µM"

[[record]]
structure = "O=C(Nc1ccc(N2CCN(C(=O)c3ccc(F)cc3)CC2)cc1)c1ccncc1"
quantity_name = "IC50"
reported_measurement = "> 66 µM"

[[record]]
structure = "O=C(Nc1ccc(N2CCN(C(=O)c3ccc(F)cc3)CC2)cc1)c1ccccc1"
quantity_name = "IC50"
reported_measurement = "> 66 µM"

[[record]]
structure = "O=C(Nc1ccc(N2CCN(C(=O)c3ccccc3F)CC2)cc1)c1cccnc1"
quantity_name = "IC50"
reported_measurement = "> 66 µM"


###

Test: inhibitors of NFkB activation in CF airway cells, SAR follow-up, KKLEB cells, panel, IL8 HTRF, NFkB-GFP (AID 651592);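 note: immortalized cystic fibrosis airway epithelial KKLEB cells with an NF-kB GFP reporter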
Conditions: PAF/TNFa-induced NFkB-GFP / IL8 HTRF, CF-PAF assay, run 1
pIC50: −log10 of the molar value.
# Lookup of reported pIC50 keyed by entry
QUANTITY NAME: pIC50

[[record]]
structure = "O=C(Nc1ccc(N2CCN(C(=O)c3ccccc3Cl)CC2)cc1)c1cncc(Br)c1"
limit_sign = "="
reported_measurement = 5.70

[[record]]
structure = "O=C(Nc1ccc(N2CCN(C(=O)c3ccc(F)cc3)CC2)cc1)c1cccnc1"
limit_sign = "="
reported_measurement = 4.42

[[record]]
structure = "CCOc1ccc(NCc2cc3c(C)nn(-c4ccccc4)c3[nH]c2=O)cc1"
limit_sign = "="
reported_measurement = 4.89

[[record]]
structure = "O=C(Nc1ccc(N2CCN(C(=O)c3ccccc3F)CC2)cc1)c1cc(Br)cc(Br)c1"
limit_sign = "<"
reported_measurement = 4.18

[[record]]
structure = "O=C(Nc1ccc(N2CCN(C(=O)c3ccccc3Cl)CC2)cc1)c1cccc(Br)c1"
limit_sign = "<"
reported_measurement = 4.18

[[record]]
structure = "O=C(Nc1ccc(N2CCN(C(=O)c3ccc(F)cc3)CC2)cc1)c1cc(Br)cc(Br)c1"
limit_sign = "<"
reported_measurement = 4.18

[[record]]
structure = "O=C(Nc1ccc(N2CCN(C(=O)c3ccccc3Cl)CC2)cc1)c1ccccn1"
limit_sign = "="
reported_measurement = 5.09

[[record]]
structure = "Cc1ccc(CNCc2cc3c(C(C)(C)C)nn(-c4ccccc4)c3[nH]c2=O)cc1"
limit_sign = "<"
reported_measurement = 4.18

[[record]]
structure = "Cc1ccc(NCc2cc3c(C(C)(C)C)nn(-c4ccccc4)c3[nH]c2=O)cc1"
limit_sign = "<"
reported_measurement = 4.18

[[record]]
structure = "O=C(Nc1ccc(N2CCN(C(=O)c3ccccc3F)CC2)cc1)c1cccnc1"
limit_sign = "="
reported_measurement = 5.19

